# system.name: FDC1 (Saccharomyces cerevisiae, UniProt Q03034)
# Construct: N-terminal 6xHis leader of vector pDEST17 (own knowledge of the vector); made in house; host or cells: E. coli BL21 (DE3)
# Sequence (Q03034 1-503): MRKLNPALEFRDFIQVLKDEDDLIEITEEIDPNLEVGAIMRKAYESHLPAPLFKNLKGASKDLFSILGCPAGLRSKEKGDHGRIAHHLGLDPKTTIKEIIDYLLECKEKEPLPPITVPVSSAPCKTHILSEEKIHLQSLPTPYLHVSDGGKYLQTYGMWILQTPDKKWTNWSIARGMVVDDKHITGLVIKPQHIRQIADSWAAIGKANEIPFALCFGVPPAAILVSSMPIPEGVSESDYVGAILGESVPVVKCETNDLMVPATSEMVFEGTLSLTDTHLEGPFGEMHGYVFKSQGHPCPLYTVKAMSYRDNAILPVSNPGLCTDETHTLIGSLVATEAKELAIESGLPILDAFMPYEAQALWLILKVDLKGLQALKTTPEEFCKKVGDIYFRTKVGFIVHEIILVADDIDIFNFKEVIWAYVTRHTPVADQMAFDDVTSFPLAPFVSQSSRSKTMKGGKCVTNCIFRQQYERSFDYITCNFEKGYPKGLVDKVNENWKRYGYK
# test.summary: Substrate specificity of FDC1
# Type: biochemical
# run.parameters: 0.2 mM substrate, 0.5 mg purified FDC1, 5 minutes at 30° C., pH 6.5
Give measured activity compared with that of tCA (relative activity) for each item. Keep answers brief.
Answer format: numeric, % implied, no suffix.

activity compared with that of tCA (relative activity) reported for this molecule O=C(O)C=Cc1ccc(O)cc1 [4-hydroxycinnamic acid] : 68

activity compared with that of tCA (relative activity) reported for this molecule Cc1ccccc1C=CC(=O)O [2-methylcinnamic acid] : 35

activity compared with that of tCA (relative activity) reported for this molecule O=C(O)/C=C/c1ccccc1 [t-cinnamic acid, trans-cinnamic acid] : 100

---

# system.name: FDC1 (Saccharomyces cerevisiae, UniProt Q03034)
# Construct: N-terminal 6xHis leader of vector pDEST17 (own knowledge of the vector); made in house; host or cells: E. coli BL21 (DE3)
# Sequence (Q03034 1-503): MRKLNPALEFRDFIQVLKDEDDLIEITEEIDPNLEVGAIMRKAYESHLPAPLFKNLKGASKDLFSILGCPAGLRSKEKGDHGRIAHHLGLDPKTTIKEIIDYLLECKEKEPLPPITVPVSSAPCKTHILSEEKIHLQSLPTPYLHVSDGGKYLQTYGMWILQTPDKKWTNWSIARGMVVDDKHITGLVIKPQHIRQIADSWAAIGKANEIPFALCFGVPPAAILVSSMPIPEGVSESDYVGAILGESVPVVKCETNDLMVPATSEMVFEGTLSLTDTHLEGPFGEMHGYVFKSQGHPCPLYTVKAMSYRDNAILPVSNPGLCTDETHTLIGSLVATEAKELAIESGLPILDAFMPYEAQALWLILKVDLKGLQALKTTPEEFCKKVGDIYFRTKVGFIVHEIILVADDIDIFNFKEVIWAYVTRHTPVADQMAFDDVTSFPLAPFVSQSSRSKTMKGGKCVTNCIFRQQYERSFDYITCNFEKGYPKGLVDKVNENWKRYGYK
# test.summary: Substrate specificity of FDC1
# Type: biochemical
# run.parameters: 0.2 mM substrate, 0.5 mg purified FDC1, 5 minutes at 30° C., pH 6.5
endpoint.label: activity compared with that of tCA (relative activity)

activity compared with that of tCA (relative activity) reported for this molecule `COc1cc(/C=C/C(=O)O)ccc1O` : 57%
